Biological target: iNOS (Mus musculus)
Assay: Inducible NOS biochemical assay
Excerpt: Biochemical assay results are presented as the percent inhibition of specific binding or activity (iNOS, CAMP, beta arrestin).
ENDPOINT NAME: iNOS inhibition % Response (%)

compound="N/C(=N\\C(=N\\S(=O)(=O)c1ccc(C(F)(F)F)cc1)N1CCC(c2ccccc2)C(c2ccc(Cl)cc2)=N1)c1ccc(F)cc1F (stereo not drawn) [Compound 10p]" system="iNOS (Mus musculus)" endpoint_name="iNOS inhibition % Response" quantitative_readout=36
compound="C/C(N)=N\\C(=N\\S(=O)(=O)c1ccc(C(F)(F)F)cc1)N1CCC(c2ccccc2)C(c2ccc(Cl)cc2)=N1 (stereo not drawn) [Compound 10b]" system="iNOS (Mus musculus)" endpoint_name="iNOS inhibition % Response" quantitative_readout=64
compound="N/C(=N/C(=N/S(=O)(=O)c1ccc(C(F)(F)F)cc1)N1CCC(c2ccccc2)C(c2ccc(Cl)cc2)=N1)c1ccccc1Cl (stereo not drawn) [Compound 10s]" system="iNOS (Mus musculus)" endpoint_name="iNOS inhibition % Response" quantitative_readout=24
compound="CC(C)/C(N)=N\\C(=N\\S(=O)(=O)c1ccc(C(F)(F)F)cc1)N1CCC(c2ccccc2)C(c2ccc(Cl)cc2)=N1 (stereo not drawn) [Compound 10m]" system="iNOS (Mus musculus)" endpoint_name="iNOS inhibition % Response" quantitative_readout=55
compound="N/C(=N\\C(=N\\S(=O)(=O)c1ccc(C(F)(F)F)cc1)N1CCC(c2ccccc2)C(c2ccc(Cl)cc2)=N1)C1CC1 (stereo not drawn) [Compound 10n]" system="iNOS (Mus musculus)" endpoint_name="iNOS inhibition % Response" quantitative_readout=55
compound="O=S(=O)(/N=C(/N=C1\\CCCCN1)N1CCC(c2ccccc2)C(c2ccc(Cl)cc2)=N1)c1ccc(C(F)(F)F)cc1 (stereo not drawn)" system="iNOS (Mus musculus)" endpoint_name="iNOS inhibition % Response" quantitative_readout=51
